Reference for the values: patent US10385034B2

Target: IL-17RA ECD (Homo sapiens)
Construct: using purified the extracellular domain (ECD) of human IL-17RA
Sequence (Q96F46 33-320 limits assumed): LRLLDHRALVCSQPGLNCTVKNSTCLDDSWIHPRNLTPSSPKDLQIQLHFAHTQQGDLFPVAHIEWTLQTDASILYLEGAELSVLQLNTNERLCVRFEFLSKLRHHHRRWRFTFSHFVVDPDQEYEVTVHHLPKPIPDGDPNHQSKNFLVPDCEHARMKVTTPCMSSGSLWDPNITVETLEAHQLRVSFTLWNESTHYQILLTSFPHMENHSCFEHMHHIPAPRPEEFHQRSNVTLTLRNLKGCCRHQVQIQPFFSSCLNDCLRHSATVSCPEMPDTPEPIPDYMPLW
Assay: Surface plasmon resonance (Biacore) binding to immobilized IL-17RA
Settings: SPR, IL-17RA immobilized on CM5 chip
Attribute Measured: Kd (nM)
Express your answer in nM, writing the number without its unit.

-- ask Form field: reported Kd of Oc1cc(O)c2cc(O)c(-c3ccc(O)c(O)c3)[o+]c2c1.[Cl-]
-- reply 225
